# assayTarget: MMP-13CD (catalytic domain of collagenase 3) (Homo sapiens)
# protocolDetails: Thiopeptolide hydrolysis assay, MMP-13;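 also: inhibition of enzymatic thiopeptolide substrate cleavage (100 µM) in pH 6.0 MES buffer with CaCl2 and DTNB, comparing hydrolysis with versus without inhibitor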
# testParameters: MMP13 IC50 μM, Table IVb
Note to self: class = bucket of IC50, per low band = under 0.01 µM, middle band = from 0.01 µM up to 0.1 µM, high band = 0.1 µM and over

Example entries begin here.
compound: COc1ccc(CNC(=O)c2ccc3c(c2)c(=O)n(Cc2ccc(C(=O)O)c(C)c2)c(=O)n3C)cc1
assayTarget: MMP-13CD (catalytic domain of collagenase 3) (Homo sapiens)
discreteLabel: low band
//
compound: COc1ccc(CNC(=O)c2ccc3c(c2)c(=O)n(Cc2ccc(NC(=O)OC(C)(C)C)nc2)c(=O)n3C)cc1
assayTarget: MMP-13CD (catalytic domain of collagenase 3) (Homo sapiens)
discreteLabel: middle band
//
compound: COc1ccc(CNC(=O)c2ccc3c(c2)c(=O)n(Cc2ccc(CC(=O)O)cc2)c(=O)n3C)cc1
assayTarget: MMP-13CD (catalytic domain of collagenase 3) (Homo sapiens)
discreteLabel: low band
//
compound: COc1ccc(CNC(=O)c2ccc3c(c2)c(=O)n(CCOc2ccc(F)cc2)c(=O)n3C)cc1
assayTarget: MMP-13CD (catalytic domain of collagenase 3) (Homo sapiens)
discreteLabel: high band
//
compound: COC(=O)c1ccc(Cn2c(=O)c3cc(C(=O)NCc4ccc(OC)cc4)ccc3n(C)c2=O)cc1C
assayTarget: MMP-13CD (catalytic domain of collagenase 3) (Homo sapiens)
discreteLabel: low band

Exercise: Which of the defined bands does the recorded IC50 of `Cn1c(=O)n(CC=Cc2ccncc2)c(=O)c2cc(C(=O)NCc3ccncc3)ccc21` sit within?
Solution: high band

Exercise: Please do the same for `COC(=O)Cc1ccc(Cn2c(=O)c3cc(C(=O)NCc4ccncc4)ccc3n(C)c2=O)cc1` as well.
Solution: middle band

Exercise: Request: `COc1ccc(CNC(=O)c2ccc3c(c2)c(=O)n(Cc2ccc(NS(C)(=O)=O)cc2)c(=O)n3C)cc1`
Solution: low band

Ref: patent US20050004126A1
